Test system: NOMO1
Assay: cell viability relative to DMSO control; higher = less cytotoxic
Settings: HPLM + 10% dialyzed FBS; 48 h; 0.569 µM
Item-by-item account of cell viability
readoutLabel: cell viability

>>> df
                            structurestring  testsystem    readoutlabel  result
0  CC(C)=CCC/C(C)=C/CC/C(C)=C/CC/C(C)=C/CC/C(C)=C/CC/C(C)=C/CC/C(C)=C/CC/C(C)=C/CC/C(C)=C/CO       NOMO1  cell viability    112%
1  Cc1ccc(C(=O)Nc2cccc(C(F)(F)F)c2)cc1-c1ccc2nc(NCCN3CCOCC3)ncc2c1       NOMO1  cell viability    117%
2  CCOc1cc2ncc(C#N)c(Nc3ccc(F)c(Cl)c3)c2cc1NC(=O)/C=C/CN(C)C       NOMO1  cell viability   80.9%
3         O=C(CCc1ccc(O)cc1)c1c(O)cc(O)cc1O       NOMO1  cell viability    100%
4  Cc1cc(OCCC[S+](C)(=O)[O-])cc(C)c1-c1cccc(COc2ccc3c(c2)OC[C@H]3CC(=O)O)c1       NOMO1  cell viability    103%

###

Test system: SEM cells
Assay: cell viability relative to DMSO control; higher = less cytotoxic
Conditions: RPMI 5 mM glucose + 10% dialyzed FBS; 48 h; 0.0211 µM
readoutLabel: cell viability (%)

compound	readoutLabel	outputUnit	quantitativeReadout
CCOc1cc2ncc(C#N)c(Nc3ccc(OCc4ccccn4)c(Cl)c3)c2cc1NC(=O)/C=C/CN(C)C	cell viability	%	116
O=C/1NC(=O)C(=C1C2=CN=C3C=CC=C[N]23)/C4=C[N]5CCN(CC6=C5C4=CC=C6)C(=O)N7CCOCC7	cell viability	%	22.2
O=C(CCCCCCC(=O)Nc1ccc([C@H]2O[C@@H](CSc3nc(-c4ccccc4)c(-c4ccccc4)o3)C[C@@H](c3ccc(CO)cc3)O2)cc1)NO	cell viability	%	135
CN(C)C1=CC(=CC=C1)C\2=C\3C(=O)N(NC3=C/C(=O)N2C)C4=CC=CC=C4Cl	cell viability	%	116
OC1=CC2=C(C=C1)C(=O)\C(=C(O2)\C3=CC(=C(O)C=C3)O)O	cell viability	%	91.6
CC(NC(C)(C)C)C(=O)c1cccc(Cl)c1 (stereo unspecified)	cell viability	%	112
CC\12CCC(=O)\C=C1CCC3C2CCC4(C)C3CCC4(O)C#C (stereo unspecified)	cell viability	%	113
O=C1\C=C/C=C2/[C@H]3CNC[C@H](C3)CN12	cell viability	%	118
COc1ccc(C(=O)c2c(C)n(CCN3CCOCC3)c3ccccc23)cc1	cell viability	%	93.5
COC(=O)Nc1nc2cc(C(=O)c3ccc(F)cc3)ccc2[nH]1	cell viability	%	117
O=S(=O)([O-])CCS.[Na+]	cell viability	%	108
N#C/C(=C\c1ccc(O)c(O)c1)C(=O)NCc1ccccc1	cell viability	%	106
CC[C@@H]1[C@@H](C)O[C@@](O)([C@@H](C)[C@H](O)[C@H](C)[C@H]2OC(=O)/C=C/C=C/[C@H](C)[C@@H]([C@@H](C)[C@@H](O)[C@H](C)[C@@]3(O)C[C@@H](O[C@H]4C[C@H](O)[C@H](O)[C@H](C)O4)[C@H](CC)[C@@H](C)O3)OC(=O)/C=C/C=C/[C@@H]2C)C[C@H]1O[C@H]1C[C@H](O)[C@H](O)[C@H](C)O1	cell viability	%	118
CCN(CCO)CCCOc1ccc2c(Nc3cc(CC(=O)Nc4cccc(F)c4)[nH]n3)ncnc2c1	cell viability	%	109
O=C(Nc1nnc(-c2ccco2)o1)c1cc(-c2ccccc2)nc2ccccc12	cell viability	%	101
NC(=O)[C@H]1CCS[C@@H]2C[C@]3(CCCN3C(=O)Cc3ccc(NC(=O)COc4ccc(Cl)cc4Cl)cc3)C(=O)N12	cell viability	%	120

These entries and their values trace back to the supplement of paper PMC11451515.
